Values compiled from patent US6358921B1.

# protocol-text: Displacement of dansyl-polymyxin from LPS
# Format: binding, P. aeruginosa
# run-conditions: read-out: LPS binding affinity: peptide concentration to displace 50% of dansyl-polymyxin B from LPS; Tables 1, 4, 7
pIC50: −log10 of the molar value.

structure-as-smiles | pIC50
CC(C)C[C@@H]1NC(=O)[C@H](CCCCN)NC(=O)[C@H](C(C)C)NC(=O)[C@@H]2CCCN2C(=O)[C@@H](Cc2ccccc2)NC(=O)[C@H](CC(C)C)NC(=O)[C@H](CCCCN)NC(=O)[C@H](C(C)C)NC(=O)[C@H](CCCCN)NC(=O)[C@H](CC(C)C)NC(=O)[C@@H]2CCCN2C(=O)[C@@H](Cc2ccccc2)NC(=O)[C@H](C(C)C)NC(=O)[C@@H](CCCCN)NC1=O | 4.23
CC(C)[C@@H]1NC(=O)[C@H](CCCCN)NC(=O)[C@H](C)NC(=O)[C@@H]2CCCN2C(=O)[C@@H](Cc2ccc(O)cc2)NC(=O)[C@H](C(C)C)NC(=O)[C@@H](CCCCN)NC(=O)[C@H](C)NC(=O)[C@H](CCCCN)NC(=O)[C@H](C(C)C)NC(=O)[C@@H]2CCCN2C(=O)[C@@H](Cc2ccc(O)cc2)NC(=O)[C@H](C)NC(=O)[C@H](CCCCN)NC1=O | 3.61
CC(C)C[C@@H]1NC(=O)[C@H](CCCCN)NC(=O)[C@@H](C(C)C)NC(=O)[C@@H]2CCCN2C(=O)[C@@H](Cc2ccc(O)cc2)NC(=O)[C@H](CC(C)C)NC(=O)[C@H](CCCCN)NC(=O)[C@H](C(C)C)NC(=O)[C@H](CCCCN)NC(=O)[C@H](CC(C)C)NC(=O)[C@@H]2CCCN2C(=O)[C@@H](Cc2ccc(O)cc2)NC(=O)[C@H](C(C)C)NC(=O)[C@H](CCCCN)NC1=O | 4.39

---

Below, each entry is listed with its recorded Minimum Inhibitory Concentration (activity).
# Tested on: P. aeruginosa H187
# Assay type: cell-based, Pseudomonas aeruginosa
# run-conditions: H187
recorded-metric: Minimum Inhibitory Concentration (activity) (µg/mL)

compound | experimental-target | relation | measured-result
CC(C)C[C@@H]1NC(=O)[C@H](CCCCN)NC(=O)[C@H](CC(C)C)NC(=O)[C@@H]2CCCN2C(=O)[C@@H](Cc2ccccc2)NC(=O)[C@H](CC(C)C)NC(=O)[C@@H](CCCCN)NC(=O)[C@H](CC(C)C)NC(=O)[C@H](CCCCN)NC(=O)[C@H](CC(C)C)NC(=O)[C@@H]2CCCN2C(=O)[C@@H](Cc2ccccc2)NC(=O)[C@H](CC(C)C)NC(=O)[C@H](CCCCN)NC1=O [Y2/F2 V3/L3] | P. aeruginosa H187 | = | 12.5
CC(C)C[C@@H]1NC(=O)[C@H](CCCCN)NC(=O)[C@H](C(C)C)NC(=O)[C@H](CCCCN)NC(=O)[C@H](CC(C)C)NC(=O)[C@@H]2CCCN2C(=O)[C@@H](Cc2ccc(O)cc2)NC(=O)[C@H](C(C)C)NC(=O)[C@H](CCCCN)NC(=O)[C@@H](CC(C)C)NC(=O)[C@H](CCCCN)NC(=O)[C@H](C(C)C)NC(=O)[C@@H]2CCCN2C(=O)[C@@H](Cc2ccc(O)cc2)NC1=O [GS14L3] | P. aeruginosa H187 | > | 200
CC(C)C[C@@H]1NC(=O)[C@H](CCCCN)NC(=O)[C@H](C(C)C)NC(=O)[C@@H]2CCCN2C(=O)[C@@H](Cc2ccc(O)cc2)NC(=O)[C@H](CC(C)C)NC(=O)[C@H](CCCCN)NC(=O)[C@H](C(C)C)NC(=O)[C@H](CCCCN)NC(=O)[C@H](CC(C)C)NC(=O)[C@@H]2CCCN2C(=O)[C@@H](Cc2ccc(O)cc2)NC(=O)[C@@H](C(C)C)NC(=O)[C@H](CCCCN)NC1=O [GS14V5] | P. aeruginosa H187 | = | 100

---

# Test system: E. coli SC9252
# protocol-text: MIC, liquid-broth microtitre dilution
# Assay type: cell-based, Escherichia coli
# run-conditions: unit from Table 10
Where a SMILES comes first, the peptide text is derived from it. [ ]: non-standard residue; d: D form. Orn = NCCC[C@H](N)C(=O)O
Label true when Antibiotic activity (Table 11, ring analogs) < 9 μg/ml; otherwise false.

molecule | classification
CC(C)C[C@@H]1NC(=O)[C@H](CCCCN)NC(=O)[C@H](C(C)C)NC(=O)[C@@H]2CCCN2C(=O)[C@@H](Cc2ccccc2)NC(=O)[C@H](CC(C)C)NC(=O)[C@H](CCCCN)NC(=O)[C@H](C(C)C)NC(=O)[C@H](CCCCN)NC(=O)[C@@H]2CCCN2C(=O)[C@@H](Cc2ccccc2)NC(=O)[C@H](CCCCN)NC1=O [GS12F] | false
CC(C)C[C@@H]1NC(=O)[C@H](CCCN)NC(=O)[C@H](C(C)C)NC(=O)[C@@H]2CCCN2C(=O)[C@@H](Cc2ccccc2)NC(=O)[C@H](CC(C)C)NC(=O)[C@H](CCCN)NC(=O)[C@H](C(C)C)NC(=O)[C@@H]2CCCN2C(=O)[C@@H](Cc2ccccc2)NC1=O [GS, cyclo(Val-Orn-Leu-D-Phe-Pro)2, reference compound] (cyclo(V[Orn]L[dF]PV[Orn]L[dF]P)) | true
CC(C)C[C@@H]1NC(=O)[C@H](CCCCN)NC(=O)[C@@H]2CCCN2C(=O)[C@@H](Cc2ccc(O)cc2)NC(=O)[C@H](CCCCN)NC(=O)[C@H](C(C)C)NC(=O)[C@H](CCCCN)NC(=O)[C@H](CC(C)C)NC(=O)[C@@H]2CCCN2C(=O)[C@@H](Cc2ccc(O)cc2)NC(=O)[C@H](C(C)C)NC(=O)[C@H](CCCCN)NC1=O [GS12LV] | false
CC(C)C[C@@H]1NC(=O)[C@H](CCCCN)NC(=O)[C@H](C(C)C)NC(=O)[C@@H]2CCCN2C(=O)[C@@H](Cc2ccc(O)cc2)NC(=O)[C@H](CC(C)C)NC(=O)[C@H](CCCCN)NC(=O)[C@H](C(C)C)NC(=O)[C@H](CCCCN)NC(=O)[C@@H]2CCCN2C(=O)[C@@H](Cc2ccc(O)cc2)NC(=O)[C@H](CCCCN)NC1=O | false
CC(C)C[C@@H]1NC(=O)[C@H](CCCCN)NC(=O)[C@H](C(C)C)NC(=O)[C@@H]2CCCN2C(=O)[C@@H](Cc2ccc(O)cc2)NC(=O)[C@H](CC(C)C)NC(=O)[C@H](CCCCN)NC(=O)[C@H](C(C)C)NC(=O)[C@H](CCCCN)NC(=O)[C@H](CC(C)C)NC(=O)[C@@H]2CCCN2C(=O)[C@@H](Cc2ccc(O)cc2)NC(=O)[C@H](C(C)C)NC(=O)[C@H](CCCCN)NC1=O | false

---

# Tested on: P. aeruginosa H188
# Type: cell-based, Pseudomonas aeruginosa
# run-conditions: H188
Where a SMILES comes first, the peptide text is derived from it. [ ]: non-standard residue; d: D form. Orn = NCCC[C@H](N)C(=O)O
Below, each entry is listed with its recorded Minimum Inhibitory Concentration (activity).
recorded-metric: Minimum Inhibitory Concentration (activity) (µg/mL)

compound | output-unit | measured-result
CC(C)C[C@@H]1NC(=O)[C@H](CCCCN)NC(=O)[C@H](C(C)C)NC(=O)[C@@H]2CCCN2C(=O)[C@@H](Cc2ccc(O)cc2)NC(=O)[C@H](CC(C)C)NC(=O)[C@H](CCCCN)NC(=O)[C@H](C(C)C)NC(=O)[C@@H](CCCCN)NC(=O)[C@H](CC(C)C)NC(=O)[C@@H]2CCCN2C(=O)[C@@H](Cc2ccc(O)cc2)NC(=O)[C@H](C(C)C)NC(=O)[C@H](CCCCN)NC1=O [GS14K9] | µg/mL | 62
CC(C)C[C@@H]1NC(=O)[C@H](CCCN)NC(=O)[C@H](C(C)C)NC(=O)[C@@H]2CCCN2C(=O)[C@@H](Cc2ccccc2)NC(=O)[C@H](CC(C)C)NC(=O)[C@H](CCCN)NC(=O)[C@H](C(C)C)NC(=O)[C@@H]2CCCN2C(=O)[C@@H](Cc2ccccc2)NC1=O [GS, cyclo(Val-Orn-Leu-D-Phe-Pro)2, reference compound] (cyclo(V[Orn]L[dF]PV[Orn]L[dF]P)) | µg/mL | 6.2
CC(C)C[C@@H]1NC(=O)[C@H](CCCCN)NC(=O)[C@H](C(C)C)NC(=O)[C@H]2CCCN2C(=O)[C@@H](Cc2ccc(O)cc2)NC(=O)[C@H](CC(C)C)NC(=O)[C@H](CCCCN)NC(=O)[C@H](C(C)C)NC(=O)[C@H](CCCCN)NC(=O)[C@H](CC(C)C)NC(=O)[C@@H]2CCCN2C(=O)[C@@H](Cc2ccc(O)cc2)NC(=O)[C@H](C(C)C)NC(=O)[C@H](CCCCN)NC1=O [GS14P14] | µg/mL | 100
